tested on: 186277-243-T-J2-PDC multi-cell spheroid viability; test: Anticancer human tumor 186277-243-T-J2-PDC patient-derived colon adenocarcinoma cell line growth inhibition [PI3K]; conditions: curve of first compound; second compound 0.0316 µM;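 further: spheroids exposed to compounds for seven days before viability reading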
READOUT_KIND: IC50

Known results for compounds:
CC(=O)c1c(C)c2cnc(Nc3ccc(N4CCNCC4)cn3)nc2n(C2CCCC2)c1=O + CC(Nc1ncnc2nc[nH]c12)c1cc2cccc(Cl)c2c(=O)n1-c1ccccc1 : > 100 nM
CC(C)n1nc(-c2ccc3oc(N)nc3c2)c2c(N)ncnc21 + CC(Nc1ncnc2nc[nH]c12)c1cc2cccc(Cl)c2c(=O)n1-c1ccccc1 : 63.4 nM

// next item, IC50 requested
Need IC50 of C[C@@H](NC(=O)c1ncnc(N)c1Cl)c1ncc(C(=O)Nc2cc(C(F)(F)F)c(Cl)cn2)s1 + CC(Nc1ncnc2nc[nH]c12)c1cc2cccc(Cl)c2c(=O)n1-c1ccccc1 , thanks.
> 10000 nM

Origin of measurements: PubChem BioAssay AID1963983
